- TEST_PROTOCOL: Efflux ratio of apparent permeability across basolateral to apical over apical to basolateral side in human Caco2 cells at 10 uM after 2 hrs by LC-MS/MS
- Type: ADME, cell-based
- CONDITION_LABEL: Caco-2
Hi there, I'd appreciate the recorded efflux ratio at 2 h, 10 µM for every entry that follows.

[[record]]
smiles_data = "Cc1ccc(C(=O)Nc2ccc(CN3CCN(C)CC3)c(C(F)(F)F)c2)cc1C#Cc1cnc(N)nc1"
measure_name = "efflux ratio at 2 h, 10 µM"
observed_result = "< 1"


Qu. What measured efflux ratio at 2 h, 10 µM goes with Cc1c(C#Cc2cnc(N)nc2)cccc1C(=O)Nc1ccc(CN2CCN(C)CC2)c(C(F)(F)F)c1 ?
Ans. < 1

----------
- TARGET_OR_TEST_SYSTEM: Mast/stem cell growth factor receptor Kit (Homo sapiens, UniProt P10721)
- Sequence (P10721 whole entry): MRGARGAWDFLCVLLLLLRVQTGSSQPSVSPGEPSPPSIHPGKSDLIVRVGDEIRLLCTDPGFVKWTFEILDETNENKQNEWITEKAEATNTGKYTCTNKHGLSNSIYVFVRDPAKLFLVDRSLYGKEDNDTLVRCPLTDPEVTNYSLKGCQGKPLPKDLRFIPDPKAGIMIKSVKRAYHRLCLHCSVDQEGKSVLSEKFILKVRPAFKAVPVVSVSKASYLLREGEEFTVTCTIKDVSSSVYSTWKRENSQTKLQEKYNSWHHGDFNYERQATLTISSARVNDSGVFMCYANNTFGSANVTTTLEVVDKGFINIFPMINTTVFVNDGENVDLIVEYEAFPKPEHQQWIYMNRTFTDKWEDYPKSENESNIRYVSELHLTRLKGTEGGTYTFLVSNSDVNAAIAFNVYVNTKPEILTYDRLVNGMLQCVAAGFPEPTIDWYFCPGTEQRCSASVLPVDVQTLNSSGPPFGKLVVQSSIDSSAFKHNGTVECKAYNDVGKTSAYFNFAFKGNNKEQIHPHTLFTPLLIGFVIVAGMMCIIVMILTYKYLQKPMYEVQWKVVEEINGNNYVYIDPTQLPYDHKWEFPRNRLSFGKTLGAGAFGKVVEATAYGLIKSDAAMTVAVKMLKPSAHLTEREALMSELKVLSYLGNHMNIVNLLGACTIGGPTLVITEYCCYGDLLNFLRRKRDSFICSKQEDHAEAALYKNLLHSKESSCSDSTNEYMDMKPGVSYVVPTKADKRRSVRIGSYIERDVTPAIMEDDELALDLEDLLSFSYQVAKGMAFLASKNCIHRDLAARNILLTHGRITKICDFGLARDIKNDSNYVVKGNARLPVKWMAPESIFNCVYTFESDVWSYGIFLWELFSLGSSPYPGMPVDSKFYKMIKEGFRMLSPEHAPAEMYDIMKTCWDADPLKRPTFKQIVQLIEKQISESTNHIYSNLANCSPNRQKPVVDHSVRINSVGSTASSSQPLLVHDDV
MEASURE_NAME: log10(IC50) (log10 of the value in nM)
Please be aware that the numbers have been log10-transformed from IC50 in nM.

[[record]]
smiles_data = "CCc1c(I)cccc1C(=O)Nc1ccc(CN2CCN(C)CC2)c(C(F)(F)F)c1"
observed_result = 3.02


Okay, here is my list. What is log10(IC50) for each of these?
1. Cc1ccc(C(=O)Nc2ccc(CN3CCN(C)CC3)c(C(F)(F)F)c2)cc1C#Cc1cccnc1
2. Cc1ccc(C(=O)Nc2ccc(CN3CCN(C)CC3)c(C(F)(F)F)c2)cc1C#Cc1ccccn1
3. Cc1ccc(C(=O)Nc2ccc(CN3CCN(C)CC3)c(C(F)(F)F)c2)c(C)c1I
4. Cc1ccc(C(=O)Nc2ccc(CN3CCN(C)CC3)c(C(F)(F)F)c2)c(F)c1I

Ans.
1: 0.32; 2: 0.54; 3: 2.75; 4: 2.26

----------
Would you mind telling me the reported GI50 at 72 h of each entry?
- TEST_PROTOCOL: Cytotoxicity against human GIST48B cells assessed as cell growth inhibition after 72 hrs by CellTiterGlo assay
- Format: cell-based
- CONDITION_LABEL: GIST48B cells
One number for each entry, in µM.

Known results for compounds:
[[record]]
smiles_data = "Cc1ccc(C(=O)Nc2ccc(CN3CCN(C)CC3)c(C(F)(F)F)c2)cc1C#Cc1ccc(N)nn1"
observed_result = 6.25

[[record]]
smiles_data = "Cc1ccc(C(=O)Nc2ccc(CN3CCN(C)CC3)c(C(F)(F)F)c2)cc1C#Cc1ccn2cnnc2c1"
observed_result = 4.15

[[record]]
smiles_data = "Cc1ccc(C(=O)Nc2ccc(CN3CCN(C)CC3)c(C(F)(F)F)c2)cc1C#Cc1cnc2cccnn12"
observed_result = 2


// batch mode: one GI50 at 72 h value per listed entry
1. Cc1ccc(C(=O)Nc2ccc(CN3CCN(C)CC3)c(C(F)(F)F)c2)cc1C#Cc1ccccn1
2. Cc1ccc(C(=O)Nc2ccc(CN3CCN(C)CC3)c(C(F)(F)F)c2)cc1C#Cc1cnc(N)c(C)c1
3. CCc1c(I)cccc1C(=O)Nc1ccc(CN2CCN(C)CC2)c(C(F)(F)F)c1

Ans.
3.63
2.09
9.94

----------
- TARGET_OR_TEST_SYSTEM: Mast/stem cell growth factor receptor Kit (Homo sapiens)
Exercise: for every item that follows, state its recorded IC50.
Answers are plain numbers, in nM.

See these solved cases before continuing.
[[record]]
smiles_data = "Cc1ccc(C(=O)Nc2ccc(CN3CCN(C)CC3)c(C(F)(F)F)c2)cc1C#Cc1ccn2ccnc2c1"
target_or_test_system = "Mast/stem cell growth factor receptor Kit (Homo sapiens)"
unit_label = "nM"
observed_result = 1.6

[[record]]
smiles_data = "Cc1ccc(C(=O)Nc2ccc(CN3CCN(C)CC3)c(F)c2)cc1C#Cc1cccnc1"
target_or_test_system = "Mast/stem cell growth factor receptor Kit (Homo sapiens)"
unit_label = "nM"
observed_result = 2.3

[[record]]
smiles_data = "Cc1ccc(C(=O)Nc2ccc(CN3CCN(C)CC3)cc2)cc1C#Cc1cnc(N)nc1"
target_or_test_system = "Mast/stem cell growth factor receptor Kit (Homo sapiens)"
unit_label = "nM"
observed_result = 2.6


Parameters: items (list). Returns: IC50 for each item.
1. Cc1ccc(C(=O)Nc2ccc(CN3CCN(C)CC3)cc2)cc1C#Cc1ccccn1
2. Cc1ccc(C(=O)Nc2ccc(CN3CCN(C)CC3)c(C(F)(F)F)c2)cc1C#Cc1cnc(N)c2ccccc12
3. Cc1ccc(C(=O)Nc2ccc(CN3CCN(C)CC3)cc2)cc1C#Cc1cccnc1
4. Cc1ccc(C(=O)Nc2ccc(CN3CCN(C)CC3)c(C(F)(F)F)c2)cc1C#Cc1ccc(N)nn1

Ans.
[240, 4, 3.3, 5.8]

Values were extracted from ChEMBL document CHEMBL4017543.
